Protein target, amino acids: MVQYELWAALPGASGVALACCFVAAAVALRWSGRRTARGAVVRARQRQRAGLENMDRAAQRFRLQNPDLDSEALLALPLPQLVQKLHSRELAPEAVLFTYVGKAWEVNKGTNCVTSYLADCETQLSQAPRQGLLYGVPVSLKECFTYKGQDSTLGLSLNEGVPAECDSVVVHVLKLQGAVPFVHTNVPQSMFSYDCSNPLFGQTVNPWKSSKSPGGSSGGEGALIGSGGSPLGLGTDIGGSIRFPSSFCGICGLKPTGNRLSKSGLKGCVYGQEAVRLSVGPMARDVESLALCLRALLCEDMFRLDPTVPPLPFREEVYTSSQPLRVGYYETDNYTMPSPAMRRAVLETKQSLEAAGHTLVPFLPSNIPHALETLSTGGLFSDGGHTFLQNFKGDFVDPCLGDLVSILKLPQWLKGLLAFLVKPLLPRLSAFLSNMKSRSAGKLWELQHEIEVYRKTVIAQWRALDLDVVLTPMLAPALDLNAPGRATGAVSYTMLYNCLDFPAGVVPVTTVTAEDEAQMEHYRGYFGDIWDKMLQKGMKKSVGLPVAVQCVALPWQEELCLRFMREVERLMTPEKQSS
pIC50: −log10 of the molar value.

compound: N#Cc1cccc(C(O)CNc2cc(-c3ccc(C(F)(F)F)c(Cl)c3)ncn2)c1 (racemic)
pIC50: 7.30
--
compound: CCc1ccc(-c2cc(NCC(O)c3ccccc3)ncn2)cc1 (racemic)
pIC50: 7.49
--
compound: CC(C)(C)c1ccc(-c2cc(NCC(O)c3ccccc3)ncn2)cc1 (racemic)
pIC50: 7.14
--
compound: OC(CNc1cc(-c2ccc(Cl)cc2)ncn1)c1ccccc1 (racemic)
pIC50: 6.11
--
compound: OC(CNc1cc(-c2cccc(C(F)(F)F)c2)ncn1)c1ccccc1 (racemic)
pIC50: 6.50
--
compound: Cc1ccc(-c2cc(NCC(O)c3ccccc3)ncn2)cc1C (racemic)
pIC50: 6.32

All figures here come from ChEMBL document CHEMBL3120054.
